From: ChEMBL document CHEMBL1137588

Assign inhibition at 10 µM to each entry below.
target: L-type calcium channel (Homo sapiens, UniProt O60840+Q01668+Q13698+Q13936); assay: Inhibition of L-type calcium channel at 10uM; type: protein assay
Report as a plain number; the unit % is understood.

IN: Find the measured inhibition at 10 µM of O=C(NC1CCN(Cc2ccc3c(c2)OCO3)CC1)c1cc(=O)c2ccc(F)cc2o1 and report it.
OUT: 31

IN: Find the measured inhibition at 10 µM of O=C(NC1CCN(Cc2ccc3ccc(=O)oc3c2)CC1)c1cc(=O)c2ccc(F)cc2o1 and report it.
OUT: 10

====

target: Melanin-concentrating hormone receptor 1 (Homo sapiens); test: Displacement of 125I-MCH from MCH-R1 expressed in IMR-32 cells
Sequence (Q99705 whole entry): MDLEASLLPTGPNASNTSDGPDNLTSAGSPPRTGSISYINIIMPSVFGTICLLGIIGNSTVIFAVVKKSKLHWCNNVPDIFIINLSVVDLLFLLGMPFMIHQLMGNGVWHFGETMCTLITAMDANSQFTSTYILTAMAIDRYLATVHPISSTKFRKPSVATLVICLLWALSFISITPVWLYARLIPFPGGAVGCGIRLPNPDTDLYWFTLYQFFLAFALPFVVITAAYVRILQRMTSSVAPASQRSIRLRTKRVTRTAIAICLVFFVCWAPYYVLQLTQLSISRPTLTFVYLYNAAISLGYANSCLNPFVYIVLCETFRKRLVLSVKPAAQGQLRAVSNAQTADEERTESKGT
Assign pIC50 to each entry below.
// returns pIC50 (minus log10 of molar concentration), number only

IN: Find the measured pIC50 of O=C1COc2cc(CN3CCC(NC(=O)c4cc(=O)c5ccc(F)cc5o4)CC3)ccc2N1 and report it.
OUT: 6.78

IN: Find the measured pIC50 of O=C(NC1CCN(Cc2ccc3ccc(=O)oc3c2)CC1)c1cc(=O)c2ccc(F)cc2o1 and report it.
OUT: 9.00

IN: Find the measured pIC50 of O=C(NC1CCN(Cc2ccc3cc[nH]c3c2)CC1)c1cc(=O)c2ccc(F)cc2o1 and report it.
OUT: 8.30

IN: Find the measured pIC50 of Cn1c(=O)ccc2ccc(CN3CCC(NC(=O)c4cc(=O)c5ccc(F)cc5o4)CC3)cc21 and report it.
OUT: 8.52

IN: Find the measured pIC50 of CCc1nc2ccc(CN3CCC(NC(=O)c4cc(=O)c5ccc(F)cc5o4)CC3)cc2o1 and report it.
OUT: 5.90

IN: Find the measured pIC50 of CC(=O)Nc1cccc(CN2CCC(NC(=O)c3cc(=O)c4ccc(F)cc4o3)CC2)c1 and report it.
OUT: 7.33

IN: Find the measured pIC50 of O=C(NC1CCN(Cc2ccc3oc(=O)[nH]c3c2)CC1)c1cc(=O)c2ccc(F)cc2o1 and report it.
OUT: 7.37

IN: Find the measured pIC50 of O=C(NC1CCN(Cc2ccc3ncoc3c2)CC1)c1cc(=O)c2ccc(F)cc2o1 and report it.
OUT: 8.00

====

biological target: Melanin-concentrating hormone receptor (Homo sapiens, UniProt Q969V1+Q99705); experiment: Inhibition of MCH-mediated calcium release in IMR-32 cells; format: functional, cell-based
MEASURED ATTRIBUTE: IC50

IN: Find the measured IC50 of O=C(NC1CCN(Cc2ccc3cc[nH]c3c2)CC1)c1cc(=O)c2ccc(F)cc2o1 and report it.
OUT: 66 nM

IN: Find the measured IC50 of CC(=O)Nc1ccc(CN2CCC(NC(=O)c3cc(=O)c4ccc(F)cc4o3)CC2)cc1 and report it.
OUT: > 10000 nM

IN: Find the measured IC50 of Cn1c(=O)ccc2ccc(CN3CCC(NC(=O)c4cc(=O)c5ccc(F)cc5o4)CC3)cc21 and report it.
OUT: 44 nM

IN: Find the measured IC50 of O=C(NC1CCN(Cc2ccc3oc(=O)[nH]c3c2)CC1)c1cc(=O)c2ccc(F)cc2o1 and report it.
OUT: 569 nM

IN: Find the measured IC50 of O=C(NC1CCN(Cc2ccc3ccc(=O)oc3c2)CC1)c1cc(=O)c2ccc(F)cc2o1 and report it.
OUT: 46 nM

IN: Find the measured IC50 of CC(=O)Nc1cccc(CN2CCC(NC(=O)c3cc(=O)c4ccc(F)cc4o3)CC2)c1 and report it.
OUT: 551 nM

IN: Find the measured IC50 of O=C1COc2cc(CN3CCC(NC(=O)c4cc(=O)c5ccc(F)cc5o4)CC3)ccc2N1 and report it.
OUT: 2410 nM

IN: Find the measured IC50 of O=C(NC1CCN(Cc2ccc3ncoc3c2)CC1)c1cc(=O)c2ccc(F)cc2o1 and report it.
OUT: 106 nM

IN: Find the measured IC50 of CCc1nc2ccc(CN3CCC(NC(=O)c4cc(=O)c5ccc(F)cc5o4)CC3)cc2o1 and report it.
OUT: > 10000 nM
